targetSystem: human uPA (Homo sapiens)
Construct: purchased
assay: in vitro uPA chromogenic substrate assay (glutaryl-glycyl-arginyl-p-nitroanilide, absorbance 405nm)
Format: biochemical
conditionDescription: read-out: % INHIBITION OF uPA ACTIVITY 20 mM INHIBITOR
recordedMetric: inhibition at 20 µM (%)

INSERT INTO measurements (inputsmiles, targetsystem, recordednumber) VALUES
  ('NC(N)=NC(=O)c1ncc(N)nc1N', 'human uPA (Homo sapiens)', 15.3),
  ('NC(N)=NC(=O)c1nc(Cl)c(Cl)nc1N', 'human uPA (Homo sapiens)', 5);

[a] Cc1ccc(CNC(=N)NC(=O)c2nc(Cl)c(NCc3ccc(Cl)cc3)nc2N)c(C)c1
[b] NC(N)=NC(=O)c1nc(Br)c(N)nc1N
Compare a and b and name the one whose reported inhibition at 20 µM is smaller. Pick one; state its label.
a
(a: 41.7%, b: 65.6%)
